// values below are reported koff
Biological target: T1, HER2-ECD-His protein (Homo sapiens, UniProt P04626)
T1 construct: human epidermal growth factor receptor 2 (HER2), extracellular region (ECD); The SPR methods name HER2-ECD-His; The ELISA legends say only 'HER2-ECD protein'; also called HER2-ECD protein; extracellular region (ECD) of HER2; source: Freestyle 293 system, secreted, purified (Ni-NTA)
Assay: SPR; k off analysis of IgG: antibody captured at 1 μg/mL by goat anti-human IgG (γ) immobilised on CM5; HER2-ECD-His injected at 160 nM
Conditions: both partners purified
property_label: koff (s⁻¹)

>>> experimental_value("clone 1A12 (IgG) (antibody, V domains shown, as the VH of m4 (hz1E11); CDR-H3 HLGGTASFDY; as the VL of m4 (hz1E11); numbers count on: Kabat; IgG; also called L-1A12; source: Freestyle 293 system, purified (protein-A)) VH: EVQLVESGGGLVQPGGSLRLSCAASGFTFSSYTMSWVRQAPGKGLEWVAYISNGGGSTYYPDTVKGRFTISRDNAKNSLYLQMNSLRAEDTAVYYCARHLGGTASFDYWGQGTLVTVSS VL: DIQMTQSPSSLSASVGDRVTITCLASQTIGTWLAWYQQKPGKAPKLLIYVATSLADGVPSRFSGSGSGTDFTLTISSLQPEDFATYYCQQNAYAPWTFGQGTKVEIK")
"2.8e-05"
>>> experimental_value("L-1F11 + H-1B12 (IgG) (antibody, V domains shown, as the VH of m4 (hz1E11); numbers count on: Kabat; as the VL of m4 (hz1E11); IgG; source: Freestyle 293 system, purified (protein-A)) VH: EVQLVESGGGLVQPGGSLRLSCAASGFTFSSYTMSWVRQAPGKGLEWVAYISNGGGSTYYPDTVKGRFTISRDNAKNSLYLQMNSLRAEDTAVYYCARNYGGTASFDYWGQGTLVTVSS VL: DIQMTQSPSSLSASVGDRVTITCLASQTIGTWLAWYQQKPGKAPKLLIYVATSLADGVPSRFSGSGSGTDFTLTISSLQPEDFATYYCQQTAFSPWTFGQGTKVEIK")
"3.45e-05"
>>> experimental_value("L-1F11 + H-2A7 (IgG) (antibody, V domains shown, as the VH of m4 (hz1E11); numbers count on: Kabat; as the VL of m4 (hz1E11); IgG; source: Freestyle 293 system, purified (protein-A)) VH: EVQLVESGGGLVQPGGSLRLSCAASGFTFSSYTMSWVRQAPGKGLEWVAYISNGGGSTYYPDTVKGRFTISRDNAKNSLYLQMNSLRAEDTAVYYCARNFGGTASFDYWGQGTLVTVSS VL: DIQMTQSPSSLSASVGDRVTITCLASQTIGTWLAWYQQKPGKAPKLLIYVATSLADGVPSRFSGSGSGTDFTLTISSLQPEDFATYYCQQTAFSPWTFGQGTKVEIK")
"4.5e-05"
>>> experimental_value("clone 1F11 (IgG) (antibody, V domains shown, as the VH of m4 (hz1E11); CDR-H3 HLGGTASFDY; as the VL of m4 (hz1E11); numbers count on: Kabat; IgG; also called L-1F11; source: Freestyle 293 system, purified (protein-A)) VH: EVQLVESGGGLVQPGGSLRLSCAASGFTFSSYTMSWVRQAPGKGLEWVAYISNGGGSTYYPDTVKGRFTISRDNAKNSLYLQMNSLRAEDTAVYYCARHLGGTASFDYWGQGTLVTVSS VL: DIQMTQSPSSLSASVGDRVTITCLASQTIGTWLAWYQQKPGKAPKLLIYVATSLADGVPSRFSGSGSGTDFTLTISSLQPEDFATYYCQQTAFSPWTFGQGTKVEIK")
"5.89e-05"
>>> experimental_value("L-1A12 + H-2A7 (IgG) (antibody, V domains shown, as the VH of m4 (hz1E11); numbers count on: Kabat; as the VL of m4 (hz1E11); IgG; source: Freestyle 293 system, purified (protein-A)) VH: EVQLVESGGGLVQPGGSLRLSCAASGFTFSSYTMSWVRQAPGKGLEWVAYISNGGGSTYYPDTVKGRFTISRDNAKNSLYLQMNSLRAEDTAVYYCARNFGGTASFDYWGQGTLVTVSS VL: DIQMTQSPSSLSASVGDRVTITCLASQTIGTWLAWYQQKPGKAPKLLIYVATSLADGVPSRFSGSGSGTDFTLTISSLQPEDFATYYCQQNAYAPWTFGQGTKVEIK")
"2.59e-05"
>>> experimental_value("L-1A12 + H-1B12 (IgG) (antibody, V domains shown, as the VH of m4 (hz1E11); numbers count on: Kabat; as the VL of m4 (hz1E11); IgG; also called combination of the VH of 1B12 and VL of 1A12; source: Freestyle 293 system, purified (protein-A)) VH: EVQLVESGGGLVQPGGSLRLSCAASGFTFSSYTMSWVRQAPGKGLEWVAYISNGGGSTYYPDTVKGRFTISRDNAKNSLYLQMNSLRAEDTAVYYCARNYGGTASFDYWGQGTLVTVSS VL: DIQMTQSPSSLSASVGDRVTITCLASQTIGTWLAWYQQKPGKAPKLLIYVATSLADGVPSRFSGSGSGTDFTLTISSLQPEDFATYYCQQNAYAPWTFGQGTKVEIK")
"1.87e-05"
